# Tested on: Lactobacillus confusus
# assay protocol: MIC, agar dilution on brain-heart infusion agar
# Assay type: cell-based
value kind: MIC (µg/mL)
Number in µg/mL, nothing else.

Previously resolved entries follow.
input: What MIC value was documented for this compound, CNC(CC(C)C)C(=O)NC1C(=O)NC(CC(N)=O)C(=O)NC2C(=O)NC3C(=O)NC(C(=O)NC(C(=O)O)c4cc(O)cc(O)c4-c4cc3ccc4O)C(OC3CC(C)(N)C(O)C(C)O3)c3ccc(c(Cl)c3)Oc3cc2cc(c3OC2OC(CO)C(O)C(O)C2OC2CC(C)(NCc3ccc(Cc4ccccc4)cc3)C(O)C(C)O2)Oc2ccc(cc2Cl)C1O (stereo not drawn) ?
output: 64

input: What MIC value was documented for this compound, CNC(CC(C)C)C(=O)NC1C(=O)NC(CC(N)=O)C(=O)NC2C(=O)NC3C(=O)NC(C(=O)NC(C(=O)O)c4cc(O)cc(O)c4-c4cc3ccc4O)C(OC3CC(C)(N)C(O)C(C)O3)c3ccc(c(Cl)c3)Oc3cc2cc(c3OC2OC(CO)C(O)C(O)C2OC2CC(C)(NCc3ccc(OCc4ccccc4)cc3)C(O)C(C)O2)Oc2ccc(cc2Cl)C1O (stereo not drawn) ?
output: 16

---
input: What MIC value was documented for this compound, CNC(CC(C)C)C(=O)NC1C(=O)NC(CC(N)=O)C(=O)NC2C(=O)NC3C(=O)NC(C(=O)NC(C(=O)O)c4cc(O)cc(O)c4-c4cc3ccc4O)C(OC3CC(C)(N)C(O)C(C)O3)c3ccc(c(Cl)c3)Oc3cc2cc(c3OC2OC(CO)C(O)C(O)C2OC2CC(C)(NCc3ccc(OC4CCCCC4)cc3)C(O)C(C)O2)Oc2ccc(cc2Cl)C1O (stereo not drawn) ?
output: 16

###

# Test system: Escherichia coli EC14
# assay protocol: MIC, standard broth micro-dilution assay
# Format: cell-based
value kind: MIC

input: What MIC value was documented for this molecule, CNC(CC(C)C)C(=O)NC1C(=O)NC(CC(N)=O)C(=O)NC2C(=O)NC3C(=O)NC(C(=O)NC(C(=O)O)c4cc(O)cc(O)c4-c4cc3ccc4O)C(OC3CC(C)(N)C(O)C(C)O3)c3ccc(c(Cl)c3)Oc3cc2cc(c3OC2OC(CO)C(O)C(O)C2OC2CC(C)(NCc3ccc(C(c4ccccc4)c4ccccc4)cc3)C(O)C(C)O2)Oc2ccc(cc2Cl)C1O (stereo not drawn) ?
output: > 64 mg/L

input: What MIC value was documented for this molecule, CNC(CC(C)C)C(=O)NC1C(=O)NC(CC(N)=O)C(=O)NC2C(=O)NC3C(=O)NC(C(=O)NC(C(=O)O)c4cc(O)cc(O)c4-c4cc3ccc4O)C(OC3CC(C)(N)C(O)C(C)O3)c3ccc(c(Cl)c3)Oc3cc2cc(c3OC2OC(CO)C(O)C(O)C2OC2CC(C)(NCc3ccc(SC)cc3)C(O)C(C)O2)Oc2ccc(cc2Cl)C1O (stereo not drawn) ?
output: > 64 mg/L

Moving on to another molecule below.
input: What MIC value was documented for this molecule, CNC(CC(C)C)C(=O)NC1C(=O)NC(CC(N)=O)C(=O)NC2C(=O)NC3C(=O)NC(C(=O)NC(C(=O)O)c4cc(O)cc(O)c4-c4cc3ccc4O)C(OC3CC(C)(N)C(O)C(C)O3)c3ccc(c(Cl)c3)Oc3cc2cc(c3OC2OC(CO)C(O)C(O)C2OC2CC(C)(NCc3cc(-c4ccccc4)nc4ccc(OC)cc34)C(O)C(C)O2)Oc2ccc(cc2Cl)C1O (stereo not drawn) [Compound 45, 4-[2-phenyl-6-methoxy]quinoylmethyl] ?
output: > 64 mg/L

###

# Tested on: Staphylococcus aureus 491
# assay protocol: MIC, standard broth micro-dilution assay
# Format: cell-based
value kind: MIC (µg/mL)
Number in µg/mL, nothing else.

input: What MIC value was documented for this molecule, CNC(CC(C)C)C(=O)NC1C(=O)NC(CC(N)=O)C(=O)NC2C(=O)NC3C(=O)NC(C(=O)NC(C(=O)O)c4cc(O)cc(O)c4-c4cc3ccc4O)C(OC3CC(C)(N)C(O)C(C)O3)c3ccc(c(Cl)c3)Oc3cc2cc(c3OC2OC(CO)C(O)C(O)C2OC2CC(C)(NCc3cccc(Oc4ccccc4)c3)C(O)C(C)O2)Oc2ccc(cc2Cl)C1O (centres unmarked) [Compound 49, 3-phenoxybenzyl] ?
output: 0.125

###

# Test system: Staphylococcus aureus 491
# assay protocol: MIC, standard broth micro-dilution assay
# Assay type: cell-based
Listed below: MIC values for each entry.
Number in mg/L, nothing else.

Previously resolved entries follow.
input: What MIC value was documented for this compound, CCCCCOc1ccc(-c2ccc(CNC3(C)CC(OC4C(Oc5c6cc7cc5Oc5ccc(cc5Cl)C(OC5CC(C)(N)C(O)C(C)O5)C5NC(=O)C(NC(=O)C7NC(=O)C(CC(N)=O)NC(=O)C(NC(=O)C(CC(C)C)NC)C(O)c7ccc(c(Cl)c7)O6)c6ccc(O)c(c6)-c6c(O)cc(O)cc6C(C(=O)O)NC5=O)OC(CO)C(O)C4O)OC(C)C3O)cc2)cc1 (stereo not drawn) [Compound 40, 4-[4-pentoxyphenyl]benzyl] ?
output: 4

input: What MIC value was documented for this compound, CNC(CC(C)C)C(=O)NC1C(=O)NC(CC(N)=O)C(=O)NC2C(=O)NC3C(=O)NC(C(=O)NC(C(=O)O)c4cc(O)cc(O)c4-c4cc3ccc4O)C(OC3CC(C)(N)C(O)C(C)O3)c3ccc(c(Cl)c3)Oc3cc2cc(c3OC2OC(CO)C(O)C(O)C2OC2CC(C)(NCC3CC=CCC3)C(O)C(C)O2)Oc2ccc(cc2Cl)C1O (stereo not drawn) [Compound 47, 3,4 cyclohexenylmethyl] ?
output: 0.5

Moving on to another compound below.
input: What MIC value was documented for this compound, CNC(CC(C)C)C(=O)NC1C(=O)NC(CC(N)=O)C(=O)NC2C(=O)NC3C(=O)NC(C(=O)NC(C(=O)O)c4cc(O)cc(O)c4-c4cc3ccc4O)C(OC3CC(C)(N)C(O)C(C)O3)c3ccc(c(Cl)c3)Oc3cc2cc(c3OC2OC(CO)C(O)C(O)C2OC2CC(C)(NCc3ccc(SC)cc3)C(O)C(C)O2)Oc2ccc(cc2Cl)C1O (stereo not drawn) [Compound 41, 4-thiomethylbenzyl] ?
output: 0.5

###

# Tested on: Staphylococcus aureus X778
# assay protocol: MIC, standard broth micro-dilution assay
# Type: cell-based
# Method: The MIC's were determined using a standard broth micro-dilution assay.
Listed below: MIC values for each entry.
Number in µg/mL, nothing else.

Previously resolved entries follow.
input: What MIC value was documented for this compound, CNC(CC(C)C)C(=O)NC1C(=O)NC(CC(N)=O)C(=O)NC2C(=O)NC3C(=O)NC(C(=O)NC(C(=O)O)c4cc(O)cc(O)c4-c4cc3ccc4O)C(OC3CC(C)(N)C(O)C(C)O3)c3ccc(c(Cl)c3)Oc3cc2cc(c3OC2OC(CO)C(O)C(O)C2OC2CC(C)(NCc3ccc(SC)cc3)C(O)C(C)O2)Oc2ccc(cc2Cl)C1O (stereo not shown) ?
output: 0.125

input: What MIC value was documented for this compound, CCCCCOc1ccc(-c2ccc(CNC3(C)CC(OC4C(Oc5c6cc7cc5Oc5ccc(cc5Cl)C(OC5CC(C)(N)C(O)C(C)O5)C5NC(=O)C(NC(=O)C7NC(=O)C(CC(N)=O)NC(=O)C(NC(=O)C(CC(C)C)NC)C(O)c7ccc(c(Cl)c7)O6)c6ccc(O)c(c6)-c6c(O)cc(O)cc6C(C(=O)O)NC5=O)OC(CO)C(O)C4O)OC(C)C3O)cc2)cc1 (stereo not shown) [Compound 40, 4-[4-pentoxyphenyl]benzyl] ?
output: 4

---
input: What MIC value was documented for this compound, CNC(CC(C)C)C(=O)NC1C(=O)NC(CC(N)=O)C(=O)NC2C(=O)NC3C(=O)NC(C(=O)NC(C(=O)O)c4cc(O)cc(O)c4-c4cc3ccc4O)C(OC3CC(C)(N)C(O)C(C)O3)c3ccc(c(Cl)c3)Oc3cc2cc(c3OC2OC(CO)C(O)C(O)C2OC2CC(C)(NCC(C)=Cc3ccc(C(C)(C)C)cc3)C(O)C(C)O2)Oc2ccc(cc2Cl)C1O (stereo not shown) ?
output: 1

###

Listed below: MIC values for each entry.
# System: Staphylococcus aureus 489
# assay protocol: MIC, standard broth micro-dilution assay
# Type: cell-based

input: Kindly state the measured MIC obtained for CNC(CC(C)C)C(=O)NC1C(=O)NC(CC(N)=O)C(=O)NC2C(=O)NC3C(=O)NC(C(=O)NC(C(=O)O)c4cc(O)cc(O)c4-c4cc3ccc4O)C(OC3CC(C)(N)C(O)C(C)O3)c3ccc(c(Cl)c3)Oc3cc2cc(c3OC2OC(CO)C(O)C(O)C2OC2CC(C)(NCc3ccc(Cc4ccccc4)cc3)C(O)C(C)O2)Oc2ccc(cc2Cl)C1O (centres unmarked) with Staphylococcus aureus 489.
output: ≤ 0.06 µg/mL

---
input: Kindly state the measured MIC obtained for CNC(CC(C)C)C(=O)NC1C(=O)NC(CC(N)=O)C(=O)NC2C(=O)NC3C(=O)NC(C(=O)NC(C(=O)O)c4cc(O)cc(O)c4-c4cc3ccc4O)C(OC3CC(C)(N)C(O)C(C)O3)c3ccc(c(Cl)c3)Oc3cc2cc(c3OC2OC(CO)C(O)C(O)C2OC2CC(C)(NCc3ccc(C(O)c4ccccc4)cc3)C(O)C(C)O2)Oc2ccc(cc2Cl)C1O (stereo not drawn) [Compound 109, 4-[alpha-hydroxybenzyl]benzyl] with Staphylococcus aureus 489.
output: ≤ 0.06 µg/mL
